- measured.target: TLR2/6 (Homo sapiens)
- Construct: host or cells: HEK293 (HEK-Blue hTLR2)
- Sequence (O60603 21-784): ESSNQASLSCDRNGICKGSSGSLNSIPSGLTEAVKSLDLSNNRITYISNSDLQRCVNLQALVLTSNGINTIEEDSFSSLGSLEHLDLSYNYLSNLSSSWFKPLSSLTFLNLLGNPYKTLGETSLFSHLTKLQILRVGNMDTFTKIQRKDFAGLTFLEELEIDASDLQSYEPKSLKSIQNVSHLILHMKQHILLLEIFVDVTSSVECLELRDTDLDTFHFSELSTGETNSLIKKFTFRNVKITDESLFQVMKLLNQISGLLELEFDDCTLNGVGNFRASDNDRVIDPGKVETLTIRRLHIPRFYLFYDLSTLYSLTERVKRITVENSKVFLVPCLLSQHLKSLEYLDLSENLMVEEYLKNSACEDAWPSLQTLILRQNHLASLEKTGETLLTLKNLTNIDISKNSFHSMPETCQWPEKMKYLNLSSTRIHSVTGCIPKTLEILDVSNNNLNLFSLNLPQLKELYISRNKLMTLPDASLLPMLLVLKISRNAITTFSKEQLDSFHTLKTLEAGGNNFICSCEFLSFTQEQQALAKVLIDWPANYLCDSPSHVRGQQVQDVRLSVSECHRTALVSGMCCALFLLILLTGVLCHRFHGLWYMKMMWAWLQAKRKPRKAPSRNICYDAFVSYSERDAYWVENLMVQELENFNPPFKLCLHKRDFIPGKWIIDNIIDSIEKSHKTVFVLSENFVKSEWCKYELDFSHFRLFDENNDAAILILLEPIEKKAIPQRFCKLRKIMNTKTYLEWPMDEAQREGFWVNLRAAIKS
- experiment.notes: HEK-Blue hTLR2 SEAP reporter assay, Pam2CSK4-activated (TLR2/6)
- Format: cell-based
- assay.conditions: hTLR2 HEK cells activated with Pam2CSK4; mean of at least three determinations; read-out: IC50 (PAM-2; μM)
parameter: IC50 (µM)
Report the value in µM with no unit label.

## Task Request body: readout IC50, system TLR2/6 (Homo sapiens), query COc1cccc(C=O)c1O [O-vanillin] . Return the value.
## Result 61.6
